meta.source: patent US10508120B2

Could you please report measured IC50 for the items listed next?
Target: JAK2/JAK2 homdimeric complex (Homo sapiens (Human), UniProt O60674)
Sequence (O60674 whole entry): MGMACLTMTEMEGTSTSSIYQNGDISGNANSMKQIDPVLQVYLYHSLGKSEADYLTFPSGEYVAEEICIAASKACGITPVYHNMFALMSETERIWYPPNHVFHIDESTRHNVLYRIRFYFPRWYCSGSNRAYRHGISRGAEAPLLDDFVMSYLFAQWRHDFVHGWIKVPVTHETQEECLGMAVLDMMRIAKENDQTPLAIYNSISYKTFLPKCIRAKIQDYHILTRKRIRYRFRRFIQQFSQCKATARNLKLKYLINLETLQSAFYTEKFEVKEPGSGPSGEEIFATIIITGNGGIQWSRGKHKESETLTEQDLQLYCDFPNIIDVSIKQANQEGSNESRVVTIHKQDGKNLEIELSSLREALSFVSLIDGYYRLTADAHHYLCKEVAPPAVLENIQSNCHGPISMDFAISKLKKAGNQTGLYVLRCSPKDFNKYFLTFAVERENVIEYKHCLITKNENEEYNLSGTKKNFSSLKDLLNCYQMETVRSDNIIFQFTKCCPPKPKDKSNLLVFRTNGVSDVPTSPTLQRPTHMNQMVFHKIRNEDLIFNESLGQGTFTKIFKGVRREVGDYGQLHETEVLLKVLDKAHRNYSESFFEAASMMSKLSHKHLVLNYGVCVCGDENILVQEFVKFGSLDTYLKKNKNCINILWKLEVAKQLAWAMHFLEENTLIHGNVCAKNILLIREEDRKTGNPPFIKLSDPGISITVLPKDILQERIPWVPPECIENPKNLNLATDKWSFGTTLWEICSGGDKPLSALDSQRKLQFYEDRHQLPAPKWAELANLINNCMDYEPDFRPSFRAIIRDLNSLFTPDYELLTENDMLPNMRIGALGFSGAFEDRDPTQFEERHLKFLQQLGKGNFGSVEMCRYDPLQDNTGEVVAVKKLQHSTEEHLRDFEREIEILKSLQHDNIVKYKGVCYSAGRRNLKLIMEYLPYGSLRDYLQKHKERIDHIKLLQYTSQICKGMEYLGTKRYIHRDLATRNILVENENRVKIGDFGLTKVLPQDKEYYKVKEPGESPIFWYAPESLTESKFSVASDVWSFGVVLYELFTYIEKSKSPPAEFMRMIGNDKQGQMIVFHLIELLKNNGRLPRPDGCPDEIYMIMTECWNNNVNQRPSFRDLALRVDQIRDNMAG
Sequence (P32927 17-897 partner): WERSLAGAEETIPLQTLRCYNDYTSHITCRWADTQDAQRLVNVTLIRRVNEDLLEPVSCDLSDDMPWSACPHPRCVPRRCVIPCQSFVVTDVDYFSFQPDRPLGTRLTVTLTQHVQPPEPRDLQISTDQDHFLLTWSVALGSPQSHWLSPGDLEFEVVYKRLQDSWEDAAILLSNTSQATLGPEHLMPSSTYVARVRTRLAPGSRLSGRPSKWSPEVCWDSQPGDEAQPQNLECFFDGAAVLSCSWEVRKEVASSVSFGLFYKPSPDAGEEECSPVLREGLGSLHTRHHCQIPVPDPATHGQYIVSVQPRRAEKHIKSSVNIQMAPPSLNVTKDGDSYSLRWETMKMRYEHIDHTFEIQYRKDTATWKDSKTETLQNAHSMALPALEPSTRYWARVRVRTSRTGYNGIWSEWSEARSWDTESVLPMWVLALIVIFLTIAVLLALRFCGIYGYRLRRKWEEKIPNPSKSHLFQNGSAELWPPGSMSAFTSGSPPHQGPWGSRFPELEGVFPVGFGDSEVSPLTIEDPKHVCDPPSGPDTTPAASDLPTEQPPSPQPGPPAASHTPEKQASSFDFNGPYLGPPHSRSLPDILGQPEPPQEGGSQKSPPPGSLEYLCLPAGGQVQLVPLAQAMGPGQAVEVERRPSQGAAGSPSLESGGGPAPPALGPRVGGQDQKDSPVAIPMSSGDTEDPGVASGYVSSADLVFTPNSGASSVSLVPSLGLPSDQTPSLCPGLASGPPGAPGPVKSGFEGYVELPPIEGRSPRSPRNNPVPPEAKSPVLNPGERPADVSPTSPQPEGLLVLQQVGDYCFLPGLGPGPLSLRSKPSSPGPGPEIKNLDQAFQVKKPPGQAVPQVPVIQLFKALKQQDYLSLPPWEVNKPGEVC
Assay: GM-CSF Induced pSTAT5 in Human PBMC
Conditions: GM-CSF 5 ng/mL for 20 minutes, pSTAT5 by MSD, read-out: PBMC_GMCSF_pSTAT5 IC50

IC50 for CCn1cc(Cl)cc(Nc2cc(NC)n3ncc(C(=O)NC4CC4)c3n2)c1=O is > 12.5 µM

IC50 for CNc1cc(Nc2cccnc2OC2CC2)nc2c(C(=O)NCC(C)CO)cnn12 (centres unmarked) is > 50 µM

IC50 for CNc1cc(Nc2cccc3ocnc23)nc2c(C(=O)N[C@@H]3CC[C@@H]3O)cnn12 [I-770] is > 2.5 µM

IC50 for CNc1cc(-c2cn(C(C)C)c3ncc(F)cc23)nc2c(C(=O)N[C@H]3CC[C@@H]3OC)cnn12 is > 12.5 µM

IC50 for CNc1cc(Nc2cc(Cl)cn([C@H]3CCCOC3)c2=O)nc2c(C(=O)N[C@@H]3C[C@@H]3F)cnn12 is > 0.3 µM

IC50 for CNc1cc(-c2cn(C(C)C)c3ncccc23)nc2c(C(=O)N[C@@H]3CC[C@H]3O)cnn12 is > 12.5 µM

IC50 for CNc1cc(Nc2cccn(-c3cc(C)on3)c2=O)nc2c(C(=O)NC3CCC3)cnn12 is > 12.5 µM

IC50 for CNc1cc(Nc2cccnc2OC(C)C)nc2c(C(=O)NC3CCC3)cnn12 is > 50 µM

---

Target: human TYK2 (JH2domain-pseudokinase) (Homo sapiens (Human), UniProt P29597)
Sequence (P29597 556-888): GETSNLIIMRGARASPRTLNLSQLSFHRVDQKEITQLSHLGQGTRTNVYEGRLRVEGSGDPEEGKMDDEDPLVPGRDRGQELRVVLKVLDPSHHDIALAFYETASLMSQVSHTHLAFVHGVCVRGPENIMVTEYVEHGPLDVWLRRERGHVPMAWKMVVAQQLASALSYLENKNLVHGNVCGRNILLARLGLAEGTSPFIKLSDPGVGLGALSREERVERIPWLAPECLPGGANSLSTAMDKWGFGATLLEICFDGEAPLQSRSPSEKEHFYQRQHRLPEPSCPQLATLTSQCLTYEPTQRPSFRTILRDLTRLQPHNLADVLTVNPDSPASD
Test: TYK2 JH2 Domain Binding Assay (KINOMEscan)
pKd: −log10 of the molar value.
endpoint_name: pKd

pKd for CNc1cc(Nc2cc(F)cn(C3CCN(C)CC3)c2=O)nc2c(C(=O)NC3CC3)cnn12 [I-625] is > 9.70

pKd for CNc1cc(Nc2cccn([C@@H]3CC[C@@H]3O)c2=O)nc2c(C(=O)N[C@H]3CC[C@@H]3OC)cnn12 [I-1411] is 8.00 to 9.00

pKd for CNc1cc(Nc2cccc(N3CCC4(CCCO4)CC3)n2)nc2c(C(=O)N[C@@H]3CC[C@@H]3O)cnn12 [I-657] is > 9.70

pKd for NC(=O)c1cnn2c(N)cc(Nc3cccnc3OC(F)(F)F)nc12 [I-102] is 9.00 to 9.70

pKd for CNc1cc(Nc2cccn(CCOC3CC3)c2=O)nc2c(C(=O)NC3CC3)cnn12 [I-453] is 9.00 to 9.70

pKd for CNc1cc(Nc2cccn([C@H]3CCCC[C@H]3O)c2=O)nc2c(C(=O)NC3CC3)cnn12 [I-878] is > 9.70

pKd for CNc1cc(Nc2cccn(-c3ocnc3C)c2=O)nc2c(C(=O)N[C@@H]3C[C@@H]3F)cnn12 [I-790] is > 9.70

pKd for CNc1cc(Nc2cccnc2O[C@H]2C[C@@H](OC)C2)nc2c(C(=O)N[C@H]3C[C@H]3F)cnn12 [I-186] is > 9.70

---

Molecular target: human TYK2 (JH2domain-pseudokinase) (Homo sapiens (Human))
Assay: TYK2 JH2 Domain Binding Assay (KINOMEscan)
endpoint_name: Kd

Known value: human TYK2 (JH2domain-pseudokinase) (Homo sapiens (Human)) Kd of the compound Cc1cc(Nc2cc(N)n3ncc(C(N)=O)c3n2)cc(N2CC[C@@H](O)C2)n1 equals > 10 nM

Known value: human TYK2 (JH2domain-pseudokinase) (Homo sapiens (Human)) Kd of the compound CNc1cc(-c2cn(CCN3CCN(C)CC3)c3ncccc23)nc2c(C(=O)NC3CC3)cnn12 equals < 0.2 nM

Known value: human TYK2 (JH2domain-pseudokinase) (Homo sapiens (Human)) Kd of the compound CNc1cc(-c2cn(CCN3CCCCC3)c3ncccc23)nc2c(C(=O)NC3CC3)cnn12 equals < 0.2 nM

Known value: human TYK2 (JH2domain-pseudokinase) (Homo sapiens (Human)) Kd of the compound CNc1cc(Nc2cc(Cl)cn(-c3cnn(C)c3)c2=O)nc2c(C(=O)NC3CC3)cnn12 equals < 0.2 nM

Known value: human TYK2 (JH2domain-pseudokinase) (Homo sapiens (Human)) Kd of the compound CNc1cc(-c2cn(C(C)C)c3ncccc23)nc2c(C(=O)N[C@H]3COC[C@H]3O)cnn12 [I-841] equals 1 to 10 nM

Known value: human TYK2 (JH2domain-pseudokinase) (Homo sapiens (Human)) Kd of the compound CNc1cc(Nc2cccn(-c3ccc(C4CC4)nn3)c2=O)nc2c(C(=O)N[C@H]3C[C@H]3F)cnn12 equals < 0.2 nM

Known value: human TYK2 (JH2domain-pseudokinase) (Homo sapiens (Human)) Kd of the compound CNc1cc(Nc2cc(C)cnc2OC(C)C)nc2c(C(=O)NC3CCC3)cnn12 equals 1 to 10 nM

Known value: human TYK2 (JH2domain-pseudokinase) (Homo sapiens (Human)) Kd of the compound CNc1cc(Nc2cccnc2OC(C)C)nc2c(C(=O)NC3CC3)cnn12 equals 0.2 to 1 nM

Known value: human TYK2 (JH2domain-pseudokinase) (Homo sapiens (Human)) Kd of the compound CNc1cc(Nc2cccnc2O[C@@H]2CCOC2)nc2c(C(=O)NC3CCC3)cnn12 equals 0.2 to 1 nM

---

Target: human TYK2 (JH2domain-pseudokinase) (Homo sapiens (Human), UniProt P29597)
Test: TYK2 JH2 Domain Binding Assay (KINOMEscan)
endpoint_name: Kd

Known value: human TYK2 (JH2domain-pseudokinase) (Homo sapiens (Human), UniProt P29597) Kd of the compound CNc1cc(Nc2cccn([C@@H]3CCC[C@H](OC)C3)c2=O)nc2c(C(=O)NCC(C)(C)CO)cnn12 equals < 200 pM

Known value: human TYK2 (JH2domain-pseudokinase) (Homo sapiens (Human), UniProt P29597) Kd of the compound CNc1cc(Nc2cccnc2OC2COC2)nc2c(C(=O)NC3CC3)cnn12 equals 1000 to 10000 pM

Known value: human TYK2 (JH2domain-pseudokinase) (Homo sapiens (Human), UniProt P29597) Kd of the compound CNc1cc(Nc2cccnc2OC)nc2c(C(=O)N[C@H]3CCC[C@H](O)C3)cnn12 equals < 200 pM

---

Molecular target: human TYK2 (JH2domain-pseudokinase) (Homo sapiens (Human), UniProt P29597)
Test: TYK2 JH2 Domain Binding Assay (KINOMEscan)
pKd: −log10 of the molar value.
endpoint_name: pKd

pKd for CNc1cc(Nc2cccn(C(C)C)c2=O)nc2c(C(=O)N[C@@H]3CC[C@H]3O)cnn12 is > 9.70

pKd for CNc1cc(-c2cn(C3CCOCC3)c3ncccc23)nc2c(C(=O)N[C@@H]3CC[C@H]3OC)cnn12 is 9.00 to 9.70

pKd for CNc1cc(Nc2cccnc2O[C@H]2CC[C@H](OC)CC2)nc2c(C(=O)N[C@H]3C[C@H]3F)cnn12 is > 9.70

pKd for CNc1cc(Nc2cccn([C@@H]3CCCN(CCF)C3)c2=O)nc2c(C(=O)N[C@H]3CC[C@@H]3OC)cnn12 is > 9.70

pKd for [2H]C([2H])([2H])Oc1ncccc1Nc1cc(NC)n2ncc(C(=O)N[C@H]3CC[C@H](O)C3)c2n1 [I-500] is > 9.70

pKd for CNc1cc(Nc2cccn(-c3cccnc3)c2=O)nc2c(C(=O)N[C@@H]3CCC[C@@H](OC)C3)cnn12 [I-1218] is 8.00 to 9.00

pKd for [2H]C([2H])([2H])Oc1ncccc1Nc1cc(NC)n2ncc(C(=O)N[C@@H]3CC[C@@H]3O)c2n1 (stereo in doubt) [I-391] is > 9.70

---

Molecular target: human TYK2 (JH2domain-pseudokinase) (Homo sapiens (Human))
Assay: TYK2 JH2 Domain Binding Assay (KINOMEscan)
Could you please report measured Kd for the items listed next?

Known value: human TYK2 (JH2domain-pseudokinase) (Homo sapiens (Human)) Kd of the compound CNc1cc(Nc2cccn(-c3cn(C)nc3F)c2=O)nc2c(C(=O)NC3CC3)cnn12 equals < 0.2 nM

Known value: human TYK2 (JH2domain-pseudokinase) (Homo sapiens (Human)) Kd of the compound CNc1cc(Nc2cccn([C@@H]3CCCC[C@@H]3OC)c2=O)nc2c(C(=O)N[C@H]3CC[C@@H]3OC)cnn12 [I-1127] equals > 10 nM

Known value: human TYK2 (JH2domain-pseudokinase) (Homo sapiens (Human)) Kd of the compound CNc1cc(Nc2cc(F)cnc2OC)nc2c(C(=O)NCC(C)(C)CO)cnn12 equals < 0.2 nM

Known value: human TYK2 (JH2domain-pseudokinase) (Homo sapiens (Human)) Kd of the compound CNc1cc(Nc2cccc3ocnc23)nc2c(C(=O)N[C@H]3CC[C@H]3O)cnn12 equals 0.2 to 1 nM

Known value: human TYK2 (JH2domain-pseudokinase) (Homo sapiens (Human)) Kd of the compound CNc1cc(Nc2cc(Cl)cn(C3CCCOC3)c2=O)nc2c(C(=O)N[C@H]3[C@@H]4COC[C@@H]43)cnn12 (some centres unmarked) equals < 0.2 nM

Known value: human TYK2 (JH2domain-pseudokinase) (Homo sapiens (Human)) Kd of the compound CNc1cc(-c2cn(C3CC3)c3ncccc23)nc2c(C(=O)N[C@H]3COC[C@H]3O)cnn12 equals < 0.2 nM

Known value: human TYK2 (JH2domain-pseudokinase) (Homo sapiens (Human)) Kd of the compound CNc1cc(Nc2cccnc2OC)nc2c(C(=O)N[C@@H]3CCC[C@H]3O)cnn12 equals < 0.2 nM

Known value: human TYK2 (JH2domain-pseudokinase) (Homo sapiens (Human)) Kd of the compound CNc1cc(-c2c[nH]c3c(C4CCOCC4)cc(Cl)cc23)nc2c(C(=O)NC3CC3)cnn12 equals 0.2 to 1 nM
